These entries and their values trace back to patent US20240294541A1.

The reader will find reported IC50 values listed item by item below.
Tested on: SNU-16 (human gastric cancer)
Assay: cells
Assay type: cell-based
Settings: Table 4; SNU-16 human gastric cancer cells; read-out: IC50 (nM) SNU-16

Some solved cases for reference:
{"columns": ["MOLECULE", "MEASURED_PROPERTY", "READING"],
 "data": [
  ["CC[C@@H](C(=O)[C@@H](C)[C@@H](O)[C@H](C)[C@@H]1O[C@@H]([C@@H](CC)C(=O)O)CC[C@@H]1C)[C@H]1O[C@]2(C=C[C@@H](NC(=O)C(=O)NC)[C@]3(CC[C@@](C)([C@H]4CC[C@](O)(CC)[C@H](C)O4)O3)O2)[C@H](C)C[C@@H]1C", "IC50", "6190 nM"],
  ["CC[C@@H](C(=O)[C@@H](C)[C@@H](O)[C@H](C)[C@@H]1O[C@@H]([C@@H](CC)C(=O)O)CC[C@@H]1C)[C@H]1O[C@]2(C=C[C@@H](NC(=O)OCc3ccccc3)[C@]3(CC[C@@](C)([C@H]4CC[C@](O)(CC)[C@H](C)O4)O3)O2)[C@H](C)C[C@@H]1C", "IC50", "143 nM"]
]}

Query: // lookup IC50 for "CC[C@@H](C(=O)[C@@H](C)[C@@H](O)[C@H](C)[C@@H]1O[C@@H]([C@@H](CC)C(=O)O)CC[C@@H]1C)[C@H]1O[C@]2(C=C[C@@H](NC(=O)C(=O)NCCc3ccccc3)[C@]3(CC[C@@](C)([C@H]4CC[C@](O)(CC)[C@H](C)O4)O3)O2)[C@H](C)C[C@@H]1C"
Result: 551 nM

Query: Input CC[C@@H](C(=O)[C@@H](C)[C@@H](O)[C@H](C)[C@@H]1O[C@@H]([C@@H](CC)C(=O)O)CC[C@@H]1C)[C@H]1O[C@]2(C=C[C@@H](O)[C@]3(CC[C@@](C)([C@H]4CC[C@](O)(CC)[C@H](C)O4)O3)O2)[C@H](C)C[C@@H]1C [FLC-00001 (SAL), Salinomycin]
Result: 145 nM

Query: # iterate: "CC[C@@H](C(=O)[C@@H](C)[C@@H](O)[C@H](C)[C@@H]1O[C@@H]([C@@H](CC)C(=O)O)CC[C@@H]1C)[C@H]1O[C@]2(C=C[C@@H](NC(=O)OCCOC)[C@]3(CC[C@@](C)([C@H]4CC[C@](O)(CC)[C@H](C)O4)O3)O2)[C@H](C)C[C@@H]1C"
Result: 535 nM

Query: Okay, and "CC[C@@H](C(=O)[C@@H](C)[C@@H](O)[C@H](C)[C@@H]1O[C@@H]([C@@H](CC)C(=O)O)CC[C@@H]1C)[C@H]1O[C@]2(C=C[C@@H](NC(=O)C(=O)NCC3CC3)[C@]3(CC[C@@](C)([C@H]4CC[C@](O)(CC)[C@H](C)O4)O3)O2)[C@H](C)C[C@@H]1C" ?
Result: 1120 nM

* * *

Tested on: KG-1 (human acute myeloid leukaemia)
Assay: In vitro cytotoxicity, MTT assay, KG-1
Type: cell-based
Settings: Homo sapiens; 72 h with compound, MTT; n/a = non-active compound
Where a name gives a salt, the structure may show the parent alone.
Here, each record is paired with measured pIC50 data.
Please treat pIC50 as minus the base-10 logarithm of the molar concentration.

Solved cases below.
{"columns": ["MOLECULE", "MEASURED_PROPERTY", "READING"],
 "data": [
  ["CC[C@@H](C(=O)[C@@H](C)[C@@H](O)[C@H](C)[C@@H]1O[C@@H]([C@@H](CC)C(=O)O)CC[C@@H]1C)[C@H]1O[C@]2(C=C[C@@H](NC(=O)NCc3ccccc3)[C@]3(CC[C@@](C)([C@H]4CC[C@](O)(CC)[C@H](C)O4)O3)O2)[C@H](C)C[C@@H]1C", "pIC50", 6.91],
  ["CC[C@@H](C(=O)[C@@H](C)[C@@H](O)[C@H](C)[C@@H]1O[C@@H]([C@@H](CC)C(=O)O)CC[C@@H]1C)[C@H]1O[C@]2(C=C[C@@H](NC(=S)NCC(C)C)[C@]3(CC[C@@](C)([C@H]4CC[C@](O)(CC)[C@H](C)O4)O3)O2)[C@H](C)C[C@@H]1C", "pIC50", 7.93],
  ["CC[C@@H](C(=O)[C@@H](C)[C@@H](O)[C@H](C)[C@@H]1O[C@@H]([C@@H](CC)C(=O)O)CC[C@@H]1C)[C@H]1O[C@]2(C=C[C@@H](NC(=O)NC3CCC3)[C@]3(CC[C@@](C)([C@H]4CC[C@](O)(CC)[C@H](C)O4)O3)O2)[C@H](C)C[C@@H]1C", "pIC50", 7.34],
  ["CC[C@@H](C(=O)[C@@H](C)[C@@H](O)[C@H](C)[C@@H]1O[C@@H]([C@@H](CC)C(=O)O)CC[C@@H]1C)[C@H]1O[C@]2(C=C[C@@H](O)[C@]3(CC[C@@](C)([C@H]4CC[C@](O)(CC)[C@H](C)O4)O3)O2)[C@H](C)C[C@@H]1C [FLC-00001 (SAL), Salinomycin]", "pIC50", 6.37],
  ["CCNC(=S)N[C@@H]1C=C[C@]2(O[C@H]([C@@H](CC)C(=O)[C@@H](C)[C@@H](O)[C@H](C)[C@@H]3O[C@@H]([C@@H](CC)C(=O)O)CC[C@@H]3C)[C@@H](C)C[C@H]2C)O[C@@]12CC[C@@](C)([C@H]1CC[C@](O)(CC)[C@H](C)O1)O2", "pIC50", 7.96]
]}

Query: Need pIC50 of CCOC(=O)C(=O)N[C@@H]1C=C[C@]2(O[C@H]([C@@H](CC)C(=O)[C@@H](C)[C@@H](O)[C@H](C)[C@@H]3O[C@@H]([C@@H](CC)C(=O)O)CC[C@@H]3C)[C@@H](C)C[C@H]2C)O[C@@]12CC[C@@](C)([C@H]1CC[C@](O)(CC)[C@H](C)O1)O2 [FLC-00373-1, C20-aminosalinomycin oxalate derivative] , thanks.
Result: 5.04

Query: Same question for "CC[C@@H](C(=O)[C@@H](C)[C@@H](O)[C@H](C)[C@@H]1O[C@@H]([C@@H](CC)C(=O)O)CC[C@@H]1C)[C@H]1O[C@]2(C=C[C@@H](NC(=S)NCc3ccccc3)[C@]3(CC[C@@](C)([C@H]4CC[C@](O)(CC)[C@H](C)O4)O3)O2)[C@H](C)C[C@@H]1C" please.
Result: 7.68
